# System: Mus musculus (mouse)
# test: Plasma Concentration after 60 min of oral administration to mice
endpoint: concentration at 1 h (nM)

Solved entries:
COCCOC(=O)NC(C(=O)N[C@@H](Cc1ccccc1)[C@H](O)CN(CC1CCCCC1)NC(=O)C(NC(=O)OCCOC)C(C)C)C(C)C (some centres not stated)	1100
CCOC(=O)NC(C(=O)N[C@@H](Cc1ccccc1)[C@H](O)CN(CC1CCCCC1)NC(=O)C(NC(=O)OCC)C(C)C)C(C)C (some centres not stated)	6700
COCCOC(=O)NC(C(=O)NN(CC1CCCCC1)C[C@@H](O)[C@H](Cc1ccccc1)NC(=O)C(NC(=O)OC)C(C)C)C(C)C (some centres not stated)	2800
CCOC(=O)NC(C(=O)NN(CC1CCCCC1)C[C@@H](O)[C@H](Cc1ccccc1)NC(=O)C(NC(=O)OC)C(C)C)C(C)C (some centres not stated)	2200

[a] CCOC(=O)NC(C(=O)N[C@@H](Cc1ccccc1)[C@H](O)CN(CC1CCCCC1)NC(=O)C(NC(=O)OCCOC)C(C)C)C(C)C (some centres not stated)
[b] C=CCOC(=O)NC(C(=O)N[C@@H](Cc1ccccc1)[C@H](O)CN(CC1CCCCC1)NC(=O)C(NC(=O)OCC=C)C(C)C)C(C)C (some centres not stated)
[c] CCOC(=O)NC(C(=O)N[C@@H](Cc1ccccc1)[C@H](O)CN(CC1CCCCC1)NC(=O)C(NC(=O)OC)C(C)C)C(C)C (some centres not stated)
[d] CC(C)C(NC(=O)OCc1ccccc1)C(=O)NN(CC1CCCCC1)C[C@H](O)[C@H](Cc1ccccc1)NC(=O)[C@H](CC(N)=O)NC(=O)c1ccc2ccccc2n1 (some centres not stated)
[e] COC(=O)N[C@H](C(=O)N[C@@H](Cc1ccccc1)C(O)CN(CCC(C)C)NC(=O)[C@@H](NC(=O)OC)C(C)C)C(C)C (some centres not stated)
Arrange these 5 molecules in increasing order of concentration at 1 h. The response must list the labels following the requested ordering.
d, c, e, b, a
(d: 200 nM, c: 400 nM, e: 600 nM, b: 1200 nM, a: 2200 nM)

Recorded values, source ChEMBL document CHEMBL1129270.
